System: Plutella xylostella (Diamond Back Moth)
assayProcedure: Plutella xylostella larvae test on artificial diet
Format: in vivo
measurementParameters: same protocol, 200 ppm (18 ppm in well), 6 days
recordedMetric: effect on mortality, feeding behavior, or growth regulation

1. CCc1cc(C(F)(C(F)(F)F)C(F)(F)C(F)(F)F)cc(C)c1NC(=O)c1ccc(C(=O)Nc2nc(-c3ccc(C)cc3)cs2)c(C)c1 (stereo not shown) = no or little effect
2. CCc1cc(C(F)(C(F)(F)F)C(F)(F)C(F)(F)F)cc(C)c1NC(=O)c1ccc(C(=O)NC2CC(C)(C)N(C)C(C)(C)C2)c(C)c1 (stereo not shown) = no or little effect
3. CCCCNC(=O)c1ccc(C(=O)Nc2c(C)cc(C(F)(C(F)(F)F)C(F)(F)F)cc2C)cc1C = no or little effect
4. CCc1cc(C(F)(C(F)(F)F)C(F)(F)C(F)(F)F)cc(C)c1NC(=O)c1ccc(C(=O)NCCCN2CCCCC2)c(C)c1 (stereo not shown) = no or little effect

Just for reference, patent US8658698B2 is where these values come from.
